Data provenance is PubChem BioAssay.

target: Torsin-1A-interacting protein 2 (Homo sapiens); assay: LULL1 binders on small-molecule microarray, primary screen, cell lysate, human LULL1 lysate, 635/667 nm fluorescence (AID 1092); settings: hLULL1 lysate binding, 635 nm fluorescence, higher = more signal;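 also: probe is lysate of COS7 cells overexpressing human LULL1; score merges per-feature 667 nm fluorescence with signal-to-noise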
Readout Kind: composite z-score
Reply with the value as a number alone.

COc1cc2c(cc1OC)CN(C(=O)[C@H]1[C@@H]3C(=O)O[C@@H](c4ccccc4)[C@@H](c4ccccc4)N3[C@@H](c3ccc(O)cc3)[C@]13C(=O)Nc1ccc(C#CCCO)cc13)CC2
2.44
C=CCNC(=O)[C@@H]1[C@H]2C(=O)O[C@H](c3ccccc3)[C@H](c3ccccc3)N2[C@H](c2ccc(OCCO)cc2)[C@@]12C(=O)Nc1ccc(C#CCC(C(=O)OC)C(=O)OC)cc12
3.04

Fill in: composite z-score of CN(C)CCCCCCNC(=O)[C@@H]1C[C@@H]2C(=O)N[C@@H](Cc3ccccc3)C(=O)N2[C@@H]1c1ccc(O)cc1 is ___
2.84

And for CC1(C)C2C=C(C(O)C3C=CC4C(=O)NC(=O)C4N3Nc3ccc(Cl)cc3Cl)C[C@@H]1C2 (some centres undefined) ?
1.33

And for C=C[C@H](CO)NS(=O)(=O)c1ccc(Br)cc1 ?
0.676

And for CC(=O)NCCCC[C@@H]1NC(=O)[C@H]2C[C@@H](C(=O)NCCCCCCNC(=O)CS)[C@@H](c3ccc(O)cc3)N2C1=O ?
3.13

And for COC(=O)C(CC#Cc1ccc2c(c1)[C@]1(C(=O)N2)[C@H](c2ccc(OCCO)cc2)N2[C@H](c3ccccc3)[C@H](c3ccccc3)OC(=O)[C@H]2[C@@H]1C(=O)Nc1nc2ccccc2s1)C(=O)OC ?
2.45

And for Cc1ccc(N2C(=O)c3ccccc3[C@@H](C(=O)NC3CC3)[C@@H]2c2ccc(CO)cc2)nc1 ?
2.35

And for COc1ccc(C(O)C2C=CC3C(=O)N(Cc4ccccc4)C(=O)C3N2n2cnnc2)cc1OCc1ccccc1 (centres undefined) ?
2.59

###

target: Calmodulin-1 (Homo sapiens) (UniProt P0DP23); assay: calcium-bound CALM1 binders on microarrays, profiling panel, artefact control for SMM control-protein annotation, biochemical, small-molecule microarray, Cy5-labelled CALM1, plus calcium (AID 1112); conditions: Cy5-CALM1 binding fluorescence, higher = more signal;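 also: score merges spot fluorescence with signal to noise from triplicate slides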
Quick rule for you: composite z-score at 0.2 or higher means label 1, lower means label 0.

CN(C)CCCCCCNC(=O)[C@@H]1C[C@@H]2C(=O)N[C@@H](Cc3ccccc3)C(=O)N2[C@@H]1c1ccc(O)cc1
label 0
CCOC(=O)C1=CC[C@@H](c2ccccc2)N(S(=O)(=O)c2ccc(C)cc2)[C@H]1c1ccccc1C
label 1

Reported composite z-score at or above 0.2? COc1cc2c(cc1OC)CN(C(=O)[C@@H]1[C@H]3C(=O)O[C@H](c4ccccc4)[C@H](c4ccccc4)N3[C@H](c3ccccc3OCCO)[C@@]13C(=O)Nc1ccc(C#CCCO)cc13)CC2
label 0

And for CC1(C)C2C=C(C(O)C3C=CC4C(=O)NC(=O)C4N3Nc3ccc(Cl)cc3Cl)C[C@@H]1C2 (some centres not stated) ?
label 1

And for COc1ccc(CCNC(=O)[C@@]2(Sc3ccc(C)cc3)CC(=O)N(C3Cc4ccccc4C3)[C@@H]2c2ccc(CO)cc2I)cc1 ?
label 1

And for COC(=O)[C@H](Cc1ccccc1)N1CC2=C[C@@H](C3CC3)n3c(=O)n(C)c(=O)n3[C@H]2[C@@H]1[C@@H](O)Cc1ccccc1 ?
label 0

And for O=C1N(Cc2ccccc2)c2ccccc2[C@@H]2OC(c3ccc(OCCCO)cc3)=N[C@]12CCS(=O)(=O)c1ccccc1 ?
label 1
